# Measurement Target: human prostanoid IP receptor (Homo sapiens)
# Construct: expressed in transfected cells
# Sequence (P43119 whole entry): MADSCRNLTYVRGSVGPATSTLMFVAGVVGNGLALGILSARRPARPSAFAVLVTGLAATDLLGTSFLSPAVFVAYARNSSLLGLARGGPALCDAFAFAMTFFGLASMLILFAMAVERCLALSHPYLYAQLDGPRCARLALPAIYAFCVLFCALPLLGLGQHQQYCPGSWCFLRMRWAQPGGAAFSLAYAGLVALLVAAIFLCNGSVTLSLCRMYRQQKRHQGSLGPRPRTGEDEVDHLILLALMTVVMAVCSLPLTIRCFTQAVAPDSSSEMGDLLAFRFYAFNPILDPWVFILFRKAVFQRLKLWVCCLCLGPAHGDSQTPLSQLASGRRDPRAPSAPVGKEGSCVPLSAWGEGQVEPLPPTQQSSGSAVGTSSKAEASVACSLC
# Assay Info: FLIPR Ca2+ signaling antagonist assay, IP receptor stable cell line
# Type: cell-based
# Assay Context: human recombinant IP in HEK-293 EBNA cells; standard agonist Cicaprost; NA = no antagonism or Kb>=10,000 nM
# Procedure: The above compounds were tested for PG antagonist activity as follows using human recombinant prostanoid receptor (DP1, EP1-4, FP, IP and TP) stable cell lines: […] Ca^2+ signaling studies were performed using a FLIPR TETRA system (Molecular Devices, Sunnyvale, Calif., USA) in the 384-format. […] Cells were excited with LED (light emitting diode) excitation at 470-495 nm and emission was measured through an emission filter at 515-575 nm. Assay plates were read for 3.5 minutes using the FLIPR^TETRA. […]
Measured Attribute: Kb (µM)

Chemical Structure	Measured Attribute	Measurement Unit	Value Reported
CC(C)Cn1ncc2cc(Cl)cc(Cn3nc(N)c4cc(C(=O)O)ccc43)c21	Kb	µM	9.3

A: CC(C)Cn1ncc2cc(Cl)cc(Cn3cnc4cc(C(=O)O)cnc43)c21
B: CC(C)Cn1ncc2cc(Cl)cc(Cn3ccc4cc(C(=O)O)cnc43)c21
C: CNc1nn(Cc2cc(Cl)cc3cnn(CC(C)C)c23)c2ccc(C(=O)O)cc12
Inquiry: Arrange these molecules by their Kb, starting with the largest number. Rank them, then answer with their labels in that order.
Reply text: A, B, C
